Molecular target: oestrogen receptor (ER) (Homo sapiens, UniProt P03372)
Construct: These MVLN cells express, along with the functional oestrogen receptor (ER), a reporter construct; endogenous in cells; host or cells: MVLN cells (MCF7 derivative with ER-responsive luciferase reporter)
Assay: Anti-oestrogenic action in MVLN cells (inhibition of estradiol-induced luciferase, transactivation antagonism)
Assay type: cell-based
Conditions: inhibition of estradiol-induced luciferase activity, read-out: Anti-oestrogenic action in vitro: MVLN transactivation antagonism IC50
Could you please mark t for values of IC50 below 7 nM and f for values at or above it?

compound: CN(CCCCCCC1=C(c2ccccc2)CCCc2cc(O)ccc21)CCCS(=O)(=O)CCCC(F)(F)F
assigned_category: t
//
compound: CN(CCCCCCC1=C(c2ccccc2)CCCc2cc(O)ccc21)CCCS(=O)(=O)CCCC(F)(F)C(F)(F)F
assigned_category: f
//
compound: CN(CCCCCC1=C(c2ccc(O)c(F)c2)CCCc2cc(O)ccc21)CCC[S+]([O-])CCCC(F)(F)C(F)(F)F (racemic)
assigned_category: t
//
compound: CN(CCCCCCC1=C(c2ccccc2)CCCc2cc(O)ccc21)CCCCS(=O)(=O)CCCC(F)(F)C(F)(F)F
assigned_category: t
//
compound: O=S(=O)(CCCN(CCO)CCCCCCC1=C(c2ccc(F)c(O)c2)CCCc2c1ccc(O)c2F)CCCC(F)(F)C(F)(F)F
assigned_category: f
//
compound: CN(CCCCCCC1=C(c2ccc(F)c(O)c2)CCCc2cc(O)c(F)cc21)CCCS(=O)(=O)CCC(F)(F)C(F)(F)F
assigned_category: f
//
compound: CN(CCCCCC1=C(c2cccc(O)c2)CCCc2cc(O)ccc21)CCCS(=O)(=O)CCCC(F)(F)C(F)(F)F
assigned_category: t
//
compound: CC(C)(O)CN(CCCCCCC1=C(c2cccc(O)c2)CCCc2cc(O)ccc21)CCC[S+]([O-])CCC(F)(F)F (racemic)
assigned_category: t
//
compound: O=S(=O)(CCCN(CCO)CCCCCCC1=C(c2cccc(O)c2)CCCc2cc(O)ccc21)CCCC(F)(F)C(F)(F)F
assigned_category: t
//
compound: CN(CCCCCCC1=C(c2ccc(F)c(O)c2)CCCc2cc(O)c(F)cc21)CCCC[S+]([O-])CCCC(F)(F)C(F)(F)F (racemic)
assigned_category: t
//
compound: [O-][S+](CCCN(CCCO)CCCCCCC1=C(c2cccc(O)c2)CCCc2cc(O)ccc21)CCC(F)(F)F (racemic)
assigned_category: t

---

Target: oestrogen receptor (ER) (Homo sapiens)
Construct: These MVLN cells express, along with the functional oestrogen receptor (ER), a reporter construct; endogenous in cells; host or cells: MVLN cells (MCF7 derivative with ER-responsive luciferase reporter)
Sequence (P03372 1-595): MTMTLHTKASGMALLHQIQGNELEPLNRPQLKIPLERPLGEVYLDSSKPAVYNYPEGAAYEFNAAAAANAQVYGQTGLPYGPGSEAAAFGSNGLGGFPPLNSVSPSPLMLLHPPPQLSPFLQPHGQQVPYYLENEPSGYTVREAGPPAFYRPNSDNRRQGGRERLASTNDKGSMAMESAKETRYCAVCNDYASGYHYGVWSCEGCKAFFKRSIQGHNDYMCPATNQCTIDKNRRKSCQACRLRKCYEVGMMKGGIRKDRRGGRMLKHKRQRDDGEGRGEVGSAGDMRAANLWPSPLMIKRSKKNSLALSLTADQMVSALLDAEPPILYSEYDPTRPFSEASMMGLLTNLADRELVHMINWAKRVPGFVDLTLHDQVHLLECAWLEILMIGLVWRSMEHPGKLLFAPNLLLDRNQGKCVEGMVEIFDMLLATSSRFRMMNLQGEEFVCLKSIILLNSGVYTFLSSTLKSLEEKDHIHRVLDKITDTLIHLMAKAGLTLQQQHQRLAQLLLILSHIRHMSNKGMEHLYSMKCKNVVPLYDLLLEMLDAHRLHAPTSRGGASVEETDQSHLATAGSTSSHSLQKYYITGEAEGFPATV
Test: Anti-oestrogenic action in MVLN cells (inhibition of estradiol-induced luciferase, transactivation antagonism)
Type: cell-based
Conditions: inhibition of estradiol-induced luciferase activity, read-out: Anti-oestrogenic action in vitro: MVLN transactivation antagonism IC50

compound: [O-][S+](CCCN(CCCO)CCCCCCC1=C(c2cccc(O)c2)CCCc2cc(O)ccc21)CCCC(F)(F)C(F)(F)F (racemic)
study_system: oestrogen receptor (ER) (Homo sapiens)
IC50 (nM): 1
//
compound: CN(CCCCCC1=C(c2cccc(O)c2)CCCc2cc(O)ccc21)CCCCS(=O)(=O)CCCC(F)(F)C(F)(F)F
study_system: oestrogen receptor (ER) (Homo sapiens)
IC50 (nM): 5
//
compound: CN(CCCCCCC1=C(c2cccc(O)c2)CCCc2cc(O)ccc21)CCCCCC[S+]([O-])CCCC(F)(F)C(F)(F)F (racemic)
study_system: oestrogen receptor (ER) (Homo sapiens)
IC50 (nM): 2
//
compound: CN(CCCCCCC1=C(c2ccccc2)CCCc2cc(O)ccc21)CCCCS(=O)(=O)CCCC(F)(F)F
study_system: oestrogen receptor (ER) (Homo sapiens)
IC50 (nM): 3
//
compound: [O-][S+](CCCN(CCCO)CCCCCCC1=C(c2ccccc2)CCCc2cc(O)ccc21)CCCC(F)(F)C(F)(F)F (racemic)
study_system: oestrogen receptor (ER) (Homo sapiens)
IC50 (nM): 4
//
compound: CN(CCCCCCC1=C(c2cccnc2)CCCc2cc(O)ccc21)CCCSCCCC(F)(F)C(F)(F)F
study_system: oestrogen receptor (ER) (Homo sapiens)
IC50 (nM): 7
//
compound: CC(C)(O)CN(CCCCCCC1=C(c2ccccc2)CCCc2cc(O)ccc21)CCCS(=O)(=O)CCCC(F)(F)C(F)(F)F
study_system: oestrogen receptor (ER) (Homo sapiens)
IC50 (nM): 14

---

Biological target: oestrogen receptor (ER) (Homo sapiens, UniProt P03372)
Construct: These MVLN cells express, along with the functional oestrogen receptor (ER), a reporter construct; endogenous in cells
Sequence (P03372 1-595): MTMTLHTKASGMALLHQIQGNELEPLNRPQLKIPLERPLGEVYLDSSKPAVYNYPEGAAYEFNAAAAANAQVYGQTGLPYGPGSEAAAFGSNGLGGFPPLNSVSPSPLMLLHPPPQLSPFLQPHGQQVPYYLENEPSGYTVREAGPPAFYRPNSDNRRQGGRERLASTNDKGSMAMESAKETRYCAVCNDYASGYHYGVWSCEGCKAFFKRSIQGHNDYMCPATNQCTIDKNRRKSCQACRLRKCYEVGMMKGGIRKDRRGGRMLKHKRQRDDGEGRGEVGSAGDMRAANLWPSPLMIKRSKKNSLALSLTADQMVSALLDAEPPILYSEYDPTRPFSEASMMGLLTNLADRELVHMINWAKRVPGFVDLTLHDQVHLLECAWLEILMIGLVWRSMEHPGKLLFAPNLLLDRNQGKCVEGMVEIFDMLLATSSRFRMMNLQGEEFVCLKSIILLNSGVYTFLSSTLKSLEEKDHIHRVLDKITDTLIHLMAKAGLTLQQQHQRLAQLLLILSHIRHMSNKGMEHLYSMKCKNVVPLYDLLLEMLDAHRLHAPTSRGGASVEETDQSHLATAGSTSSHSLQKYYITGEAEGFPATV
Assay: Anti-oestrogenic action in MVLN cells (inhibition of estradiol-induced luciferase, transactivation antagonism)
Conditions: inhibition of estradiol-induced luciferase activity, read-out: Anti-oestrogenic action in vitro: MVLN transactivation antagonism IC50
Excerpt: The anti-oestrogenic action of the claimed pharmacological compounds was investigated in so-called MVLN cells in vitro. MVLN cells are derivatives of the hormone-responsive MCF7 breast cancer cells known by a person skilled in the art. These MVLN cells express, along with the functional oestrogen receptor (ER), a reporter construct, which under ER-activation expresses luciferase. […]
pIC50: −log10 of the molar value.

compound: CN(CCCCCCC1=C(c2cccc(O)c2)CCCc2cc(O)ccc21)CCC[S+]([O-])CCC(F)(F)F (racemic) [Example 55]
pIC50: 8.70
//
compound: CN(CCCCCCC1=C(c2ccccc2)CCCc2cc(O)ccc21)CCC[S+]([O-])CCC(F)(F)F (racemic) [Example 59]
pIC50: 8.00
//
compound: CN(CCCCCCC1=C(c2ccccc2)CCCc2cc(O)ccc21)CCCS(=O)(=O)CCC(F)(F)C(F)(F)F [Example 62]
pIC50: 7.92
//
compound: CN(CCCCCC1=C(c2cccc(O)c2)CCCc2cc(O)ccc21)CCCCS(=O)(=O)CCC(F)(F)F [Example 112]
pIC50: 7.35
//
compound: CC(C)(O)CN(CCCCCCC1=C(c2ccccc2)CCCc2cc(O)ccc21)CCC[S+]([O-])CCC(F)(F)F (racemic) [Example 82]
pIC50: 8.05
//
compound: O=S(=O)(CCCN(CCCO)CCCCCCC1=C(c2cccc(O)c2)CCCc2cc(O)ccc21)CCC(F)(F)F [Example 99]
pIC50: 8.10
//
compound: CN(CCCCCC1=C(c2cccc(O)c2)CCCc2cc(O)ccc21)CCC[S+]([O-])CCCC(F)(F)C(F)(F)F (racemic) [Example 4]
pIC50: 8.52
//
compound: CN(CCCCCC1=C(c2ccc(F)c(O)c2)CCCc2cc(O)ccc21)CCCCS(=O)(=O)CCCC(F)(F)C(F)(F)F [Example 25]
pIC50: 7.62
//
compound: CCN(CCCCCCC1=C(c2ccccc2)CCCc2cc(O)ccc21)CCC[S+]([O-])CCC(F)(F)F (racemic) [Example 76]
pIC50: 7.64
//
compound: CN(CCCCCCC1=C(c2ccc(F)c(O)c2)CCCc2cc(O)c(F)cc21)CCC[S+]([O-])CCC(F)(F)C(F)(F)F (racemic) [Example 122]
pIC50: 8.22
//
compound: CN(CCCCCC1=C(c2ccccc2)CCCc2cc(O)ccc21)CCC[S+]([O-])CCCC(F)(F)C(F)(F)F (racemic) [Example 2]
pIC50: 8.10
//
compound: CN(CCCCCC1=C(c2ccc(O)c(F)c2)CCCc2cc(O)ccc21)CCCS(=O)(=O)CCCC(F)(F)C(F)(F)F [Example 38]
pIC50: 8.70
//
compound: CC(C)(O)CN(CCCCCCC1=C(c2ccccc2)CCCc2cc(O)ccc21)CCC[S+]([O-])CCCC(F)(F)C(F)(F)F (racemic) [Example 74]
pIC50: 8.52
//
compound: CN(CCCCCCC1=C(c2cccc(O)c2)CCCc2cc(O)ccc21)CCCCS(=O)(=O)CCCC(F)(F)F [Example 52]
pIC50: 9.00
//
compound: CN(CCCCCCC1=C(c2ccc(F)c(O)c2)CCCc2cc(O)c(F)cc21)CCCS(=O)(=O)CCCC(F)(F)F [Example 127]
pIC50: 8.22
//
compound: CN(CCCCCC1=C(c2cccnc2)CCCc2cc(O)ccc21)CCCSCCCC(F)(F)C(F)(F)F [Example 39]
pIC50: 6.84
//
compound: CN(CCCCCC1=C(c2cccc(O)c2)CCCc2cc(O)ccc21)CCCC[S+]([O-])CCCC(F)(F)C(F)(F)F (racemic) [Example 6]
pIC50: 8.40
//
compound: CN(CCCCCC1=C(c2ccccc2)CCCc2cc(O)ccc21)CCCCS(=O)(=O)CCCC(F)(F)C(F)(F)F [Example 85]
pIC50: 7.40
//
compound: CN(CCCCCCC1=C(c2ccc(F)c(O)c2)CCCc2cc(O)ccc21)CCCC[S+]([O-])CCCC(F)(F)C(F)(F)F (racemic) [Example 30]
pIC50: 8.70
//
compound: CN(CCCCCCC1=C(c2ccc(F)c(O)c2)CCCc2cc(O)c(F)cc21)CCC[S+]([O-])CCCC(F)(F)C(F)(F)F (racemic) [Example 130]
pIC50: 8.30
//
compound: O=S(=O)(CCCN(CCO)CCCCCCC1=C(c2cccc(O)c2)CCCc2cc(O)ccc21)CCC(F)(F)F [Example 98]
pIC50: 8.52
//
compound: CN(CCCCCCC1=C(c2ccccc2)CCCc2cc(O)ccc21)CCC[S+]([O-])CCCC(F)(F)C(F)(F)F (racemic) [Example 64]
pIC50: 8.30
//
compound: COCCN(CCCCCCC1=C(c2cccc(O)c2)CCCc2cc(O)ccc21)CCCS(=O)(=O)CCCC(F)(F)C(F)(F)F [Example 106]
pIC50: 9.00
//
compound: CN(CCCCCC1=C(c2ccc(O)c(F)c2)CCCc2cc(O)ccc21)CCCSCCCC(F)(F)C(F)(F)F [Example 36]
pIC50: 8.52
//
compound: CN(CCCCCCC1=C(c2cccc(O)c2)CCCc2cc(O)ccc21)CCCS(=O)(=O)CCCC(F)(F)C(F)(F)F [Example 13]
pIC50: 8.52
//
compound: CN(CCCCCCC1=C(c2ccc(F)c(O)c2)CCCc2cc(O)ccc21)CCCCS(=O)(=O)CCC(F)(F)F [Example 110]
pIC50: 8.30
//
compound: CN(CCCCCC1=C(c2ccccc2)CCCc2cc(O)ccc21)CCCS(=O)(=O)CCCC(F)(F)C(F)(F)F [Example 3]
pIC50: 7.82
